# experiment: solvent given as SMILES
# condition parameters: in ClCCl
recorded metric: absorption maximum (nm)
State the answer as a number, implicitly in nm.

[
  {
    "compound": "C[Si](C)(C)C#Cc1cc(C#C[Si](C)(C)C)c2ccc3c(C(=O)c4ccccc4)cc(C#C[Si](C)(C)C)c4ccc1c2c43",
    "absorption maximum (nm)": 426
  },
  {
    "compound": "CN(C)c1ccc(/C=C/c2cc(/C=C/c3ccc(N(C)C)cc3)nc(/C=C/c3ccc(N(C)C)cc3)n2)cc1",
    "absorption maximum (nm)": 402
  },
  {
    "compound": "O=c1cc(COc2ccc(I)cc2)c2c(ccc3ccccc32)o1",
    "absorption maximum (nm)": 349
  },
  {
    "compound": "CCOC(=O)COc1ccc(/C=C/C2=C3c4ccccc4C(c4[nH]c(C)cc4C)=[N+]3[B-](F)(F)n3c(/C=C/c4ccc(OCC(=O)OCC)cc4)cc(C)c32)cc1",
    "absorption maximum (nm)": 676
  },
  {
    "compound": "CN(C)c1ccc(C#Cc2cc(C#Cc3ccc(C(F)(F)F)cc3)c3ccc4c(C#Cc5ccc(N(C)C)cc5)cc(C#Cc5ccc(C(F)(F)F)cc5)c5ccc2c3c45)cc1",
    "absorption maximum (nm)": 509
  },
  {
    "compound": "CCN(CC)c1ccc2cc(C#N)/c(=N\\C(=O)C(C)C)oc2c1",
    "absorption maximum (nm)": 428
  },
  {
    "compound": "CCCCCCn1c(=O)c2c3oc4ccccc4sc3c3c(=O)n(CCCCCC)c(=O)c3c2c1=O",
    "absorption maximum (nm)": 437
  },
  {
    "compound": "Cn1nc(-c2ccc(C(F)(F)F)cc2)cc1-c1ccccc1",
    "absorption maximum (nm)": 260
  }
]

The record that follows has no absorption maximum shown yet.
Would you mind telling me what absorption maximum value was observed for CN1C(=CC2=C([O-])C(=CC3=[N+](C)c4ccc(Cl)cc4C3(C)C)C2=O)C(C)(C)c2cc(Cl)ccc21 ? 641
